Origin of values: PubChem BioAssay (NCI)

System: RPMI-8226 leukemia
Test: NCI tumour cell line growth inhibition, 48 h

{"molecule": "c1ccc(C(C2=Nc3cccc4cccc(c34)N2)c2ccccc2)cc1", "study target": "RPMI-8226 leukemia", "TGI": "> 100 µM"}
{"molecule": "Clc1cccc(Cc2cn3cc(-c4ccccc4)nc3s2)c1Cl", "study target": "RPMI-8226 leukemia", "TGI": "> 100 µM"}
{"molecule": "c1cc2c(cc1NC1=NCCO1)CCC2", "study target": "RPMI-8226 leukemia", "TGI": "> 10 µM"}
{"molecule": "COC(=O)Nc1nc2ccc(S(=O)c3ccccc3)cc2[nH]1 (stereo not drawn)", "study target": "RPMI-8226 leukemia", "TGI": "> 100 µM"}
{"molecule": "CC1(C)CCc2ccc(OCCC(=O)O)cc2O1", "study target": "RPMI-8226 leukemia", "TGI": "> 100 µM"}
{"molecule": "O=C1N(C2CCCCC2)C(=O)N1C1CCCCC1", "study target": "RPMI-8226 leukemia", "TGI": "0.935 µM"}
{"molecule": "CCCCCCCC(=O)SCC/C=C/[C@@H]1CC(=O)NCc2cccc(n2)C2=N[C@@](C)(CS2)C(=O)N[C@@H](C(C)C)C(=O)N1", "study target": "RPMI-8226 leukemia", "TGI": "> 33.3 µM"}
{"molecule": "CSC(=N/C=C/c1ccccc1)SC", "study target": "RPMI-8226 leukemia", "TGI": "> 100 µM"}
{"molecule": "COc1ccc(NC(=O)c2cc(OC)cc(OC)c2)cc1", "study target": "RPMI-8226 leukemia", "TGI": "> 100 µM"}
{"molecule": "COc1ccc(-c2cc(=O)c3ccc(O)cc3o2)c(OC)c1OC", "study target": "RPMI-8226 leukemia", "TGI": "> 100 µM"}
{"molecule": "C=Cc1nc2c(Cl)ncnc2n1Cc1ccccc1", "study target": "RPMI-8226 leukemia", "TGI": "18.3 µM"}
{"molecule": "NC(CCc1nc(-c2ccc(Cl)cc2)cs1)C(=O)O (stereo not drawn)", "study target": "RPMI-8226 leukemia", "TGI": "> 100 µM"}
{"molecule": "COc1ccc(NC(=S)Nc2cc(C)cc(C)n2)cc1", "study target": "RPMI-8226 leukemia", "TGI": "> 100 µM"}
{"molecule": "CCc1ccc2c(c1)C(=O)c1c-2n(CCCBr)c(=O)c2cc([N+](=O)[O-])ccc12", "study target": "RPMI-8226 leukemia", "TGI": "> 50 µM"}
{"molecule": "CC[C@@]12CCCN3CC[C@]4(c5cccc(OC)c5N(C(C)=O)[C@@H]4CC1)[C@H]32", "study target": "RPMI-8226 leukemia", "TGI": "> 100 µM"}
{"molecule": "CN(CC(=O)N1CC(CCl)c2ccc([N+](=O)[O-])cc21)CC(=O)N1CC(CCl)c2ccc([N+](=O)[O-])cc21 (stereo not drawn)", "study target": "RPMI-8226 leukemia", "TGI": "> 100 µM"}
{"molecule": "O=C(CN1CCN(c2cc3c(cc2F)c(=O)c(C(=O)N/N=C/c2ccccc2O)cn3C2CC2)CC1)N/N=C\\c1ccccc1O", "study target": "RPMI-8226 leukemia", "TGI": "> 100 µM"}
{"molecule": "COc1c2ccoc2c(/C=C/C=O)c2oc(-c3ccccc3)cc(=O)c12", "study target": "RPMI-8226 leukemia", "TGI": "5.81 µM"}
{"molecule": "CC(=O)c1cccc(Nc2nc3ccccc3c3occc23)c1", "study target": "RPMI-8226 leukemia", "TGI": "> 100 µM"}
{"molecule": "NC1CC(=O)c2cscc21 (stereo not drawn)", "study target": "RPMI-8226 leukemia", "TGI": "> 100 µM"}
{"molecule": "COc1cc(-c2ccc(Br)[nH]2)[nH]c1C=NCC(C)C", "study target": "RPMI-8226 leukemia", "TGI": "2.67 µM"}
{"molecule": "O=[S@@]1Nc2ccc(Br)cc2S1", "study target": "RPMI-8226 leukemia", "TGI": "> 100 µM"}
{"molecule": "NC(=O)C(=CNC(N)=S)C(N)=O", "study target": "RPMI-8226 leukemia", "TGI": "> 100 µM"}
